Kindly supply the reported normalized growth values for the records listed here.
# Assay Text: chemical genetic growth profiling, strain panel (AID 1159580);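 further: tested at 20 µM; growth read once vehicle control cultures reached saturation at 30 °C; 1 = growth at the plate median or of vehicle wells; lower values mean less growth of the strain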
# Experimental Conditions: S. cerevisiae deletion strains, growth OD, locus YBR009C, strain hhf1, stronger effect = lower value
In all, about 5,500 compounds went through this assay and about 2,000 (36%) were called active. Another 18% or so got no clear call; they are omitted. The list shows a part of the results.
Numbers only.

Hi, could you look up normalized growth for each item in my list?
1. CCCCCCC(C)OC(=O)COc1ccc(Cl)cc1Cl (stereo unspecified)
2. CCCCOc1cc(C(=O)NCCN(CC)CC)c2ccccc2n1

[reply]
1: 0.985; 2: 0.97

Take each entry in turn and give its normalized growth.
1. Oc1cc2c(cc1O)C1c3ccc(O)c(O)c3OCC1(O)C2 (stereo unspecified)
2. CC(C)(C)NCC(O)c1cc(Cl)c(N)c(Cl)c1 (stereo unspecified)

[reply]
1
1

Quick one: give me normalized growth for each item below, same order please.
1. O=C1C=C2C(=CCOC2O)O1 (stereo unspecified)
2. CC1(C)C(=O)C=C[C@@]2(C)C1CC(=O)[C@]1(C)C2CC[C@@]2(C)[C@H](c3ccoc3)OC(=O)[C@H]3O[C@]321 (stereo partly specified)
3. C[C@@H]([C@H](O)c1ccccc1)N(C)C

[reply]
0.71
1.04
1.01

Fill in normalized growth for each of the 2 compounds listed.
1. COc1ccccc1/C=C\C(=O)O
2. COC(=O)c1c(C)cc(OC)cc1O

[reply]
1. 1
2. 0.978

Look at each compound and report its normalized growth.
1. CC1(C)C(=O)C=C[C@@]2(C)C1C=C[C@]1(C)C2CC[C@@]2(C)[C@H](c3ccoc3)OC(=O)C3OC321 (stereo partly specified)
2. CCCCCC(=O)Cc1cc(O)cc(O)c1C(=O)Oc1cc(CC(=O)CCCCC)c(C(=O)O)c(OC)c1

[reply]
0.915
0.881

---

# Assay Text: chemical genetic growth profiling, strain panel (AID 1159580);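 further: tested at 20 µM; growth read once vehicle control cultures reached saturation at 30 °C; 1 = growth at the plate median or of vehicle wells; lower values mean less growth of the strain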
# Experimental Conditions: S. cerevisiae deletion strains, growth OD, locus YJL166W, strain qcr8, stronger effect = lower value
Screen size: about 5,500 compounds; about 2,000 (36%) were called active. Roughly 18% stayed inconclusive and do not appear here. The list shows a part of the results.
Consider the cut-off 1. If the recorded normalized growth is strictly smaller, the label is yes; if not, the label is no.

| Molecule | Assigned Label |
| --- | --- |
| COc1ccc(-c2oc3c(CC=C(C)C)c(O[C@@H]4O[C@H](CO)[C@@H](O)[C@H](O)[C@H]4O)cc(O)c3c(=O)c2O[C@@H]2O[C@@H](C)[C@H](O)[C@@H](O)[C@H]2O)cc1 | no |

[ask] hey, is normalized growth for CC1(C)C(=O)C=C[C@@]2(C)C1C=C[C@]1(C)C2CC[C@@]2(C)[C@H](c3ccoc3)OC(=O)C3OC321 (stereo partly drawn) lower than 1 or not?
[reply] yes

---

For each record, write down the corresponding normalized growth.
# Assay Text: chemical genetic growth profiling, strain panel (AID 1159580);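 further: tested at 20 µM; growth read once vehicle control cultures reached saturation at 30 °C; 1 = growth at the plate median or of vehicle wells; lower values mean less growth of the strain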
# Experimental Conditions: S. cerevisiae deletion strains, growth OD, locus YJL128C, strain PBS2, stronger effect = lower value
The whole screen tested about 5,500 compounds, of which about 2,000 (36%) were called active. Inconclusive results (about 18%) are left out. The list shows a part of the results.
Answers are plain numbers.

Worked set:
| Compound Structure | normalized growth |
| --- | --- |
| O/N=C(/c1ccc(Cl)cc1)c1cc2ccccc2o1 | 0.893 |
| O=C1Nc2ccccc2/C1=C/c1ccc(Oc2ccccc2)nc1 | 0.877 |
| O=C1Nc2ccccc2/C1=C/c1ccc(C(F)(F)F)cc1Cl | 0.903 |

// for each compound in input: emit normalized growth
1. O=C1Nc2ccccc2/C1=C\c1cccc([N+](=O)[O-])c1
2. CCCCNC(=S)N/N=C\c1cc(Cl)cc(Cl)c1O
3. CCNC(=S)N/N=C\c1cc(Cl)cc(Cl)c1O
4. Cc1cc(Cl)ccc1NNC(=O)c1sccc1Cl
5. O=[N+]([O-])c1cc(Cl)cc([N+](=O)[O-])c1Nc1ccccc1

[reply]
[0.923, 0.897, 0.925, 0.89, 0.916]
